Ref: PubChem BioAssay (NCATS)

Tested on: CRL-7250
Experiment Notes: Cytotoxic Profiling of Annotated Libraries Using Quantitative High-Throughput Screening (AID 1296008); note: % is set by controls: 0 for no effect and ±100 for the full control effect; nearly all actives have a fitted effect of over 60% in size
Measurement Conditions: Five cell lines viability, CellTiter-Glo ATP luminescence, 48-72 h; active compounds read low
Inconclusive results are not listed.
Measured Property: max response (%)
Please give a number only; it is taken to be in %.

Recorded results for 3 compounds are shown here.
Compound	max response [%]
COc1ccc2c(c1)OC[C@]1(O)c3cc4c(cc3O[C@H]21)OCO4	-0.876
CC(C)(OC1OC(CO)C(O)C(O)C1O)C1CCC(O)(CO)C2CC(O)C(C)(O)C2C1 (centres undefined)	-5.53
COc1ccc(C(=O)O[C@H]2CC(C)=CC[C@@]3(C)[C@@H](OC(C)=O)C[C@@](O)(C(C)C)[C@H]23)cc1	-4.18

Moving on to the next compound.
Log: CRL-7250, compound C=CC1C(O[C@@H]2O[C@H](CO)[C@@H](O)[C@H](O)[C@H]2O)OC=C(C(=O)OC)C1Cc1nccc2c1[nH]c1ccccc12 (some centres undefined) , max response = 3.98

---

Test system: AA1029
Experiment Notes: qHTS profiling for inhibitors of Plasmodium falciparum proliferation (AID 504749); note: nearly all actives have a fitted effect of over 60% in size
Measurement Conditions: P. falciparum in erythrocytes, SYBR Green DNA, 72 h; series mostly up to 28.7 µM
Results filed as inconclusive are left out. The source made the active and inactive calls. The call rests on the fitted dose curve; in most records, active means well fitted inhibition curve with a large enough effect; inconclusive means small, poorly fitted or top-dose-only effect; inactive means flat fitted curve, though single readings scatter.
Return exactly one item of active, inactive

Completed entries (count: 5):
Compound	Qualitative Label
CC(C)N=c1cc2n(-c3ccc(Cl)cc3)c3ccccc3nc-2cc1Nc1ccc(Cl)cc1	inactive
CC[C@@]1(O)C(=O)OCc2c1cc1n(c2=O)Cc2cc3c([N+](=O)[O-])cccc3nc2-1	active
COC(F)(F)C(Cl)Cl	inactive
Nc1c(Br)cc(Br)cc1CNC1CCC(O)CC1 (stereo not given)	inactive
NC(=O)c1ncn(C2OC(CO)C(O)C2O)n1 (stereo not given)	inactive

Incoming: Fill in: this test's call for CO[C@H](C(=O)[C@@H](O)[C@@H](C)O)C1Cc2cc3cc(O[C@H]4C[C@@H](O[C@H]5C[C@@H](O)[C@H](O)[C@@H](C)O5)[C@@H](O)[C@@H](C)O4)c(C)c(O)c3c(O)c2C(=O)[C@H]1O[C@H]1C[C@@H](O[C@H]2C[C@@H](O[C@H]3C[C@](C)(O)[C@H](O)[C@@H](C)O3)[C@H](O)[C@@H](C)O2)[C@H](O)[C@@H](C)O1 (stereo not given in full) is ___
Outgoing: active

Incoming: Which outcome did this test record for the compound CCOc1ccc2c(c1)C(C)=CC(C)(C)N2 ?
Outgoing: inactive

Incoming: What call does the record list for COC(=O)[C@H]1[C@H]2C[C@@H]3c4[nH]c5ccccc5c4CCN3C[C@H]2C[C@@H](OC(=O)c2cc(OC)c(OC)c(OC)c2)[C@@H]1OC ?
Outgoing: active

Incoming: Give the logged outcome of this assay for the following compound: Cc1ccccc1OCC(O)CNCCOc1ccc(C(N)=O)cc1 (stereo not given)
Outgoing: inactive

Incoming: Entry CCCCCCCCCCCCCCCC(=O)OCC(COC(=O)CCCCCCCCCCCCCCC)OC(=O)CCCCCCCCCCCCCCC : call = ?
Outgoing: inactive

---

Experiment Notes: qHTS drug screen for cell cycle checkpoint inhibitors in PARPi-resistant BRCA-mutant ovarian cancer cell lines. (AID 1963452)
Measurement Conditions: PEO1/OlaR viability, CellTiter-Glo luminescence, 96 h; active compounds read low
Just a reminder that ties go to condition not met: only Z-AUC strictly below 0.3 counts as condition met.

Examples with answers:
Compound	Qualitative Label
COc1cc(N2CCC(O)CC2)ccc1Nc1cc(Nc2ccccc2S(=O)(=O)C(C)C)c2cc[nH]c2n1	condition not met
NCc1ccc(OCCCc2sc(-c3ccc4c(c3)/C(=N/Nc3nc5ccccc5s3)CCC4)nc2C(=O)O)cc1	condition not met
Nc1ccn([C@@H]2C(F)=C(CO)[C@@H](O)[C@H]2O)c(=O)n1	condition not met
CO[C@@H]1COCC[C@@H]1N[C@@H]1CC[C@@](C(=O)N2CCc3ncc(C(F)(F)F)cc3C2)(C(C)C)C1	condition met
CN(NC(=O)CC(=O)NN(C)C(=S)c1ccccc1)C(=S)c1ccccc1	condition not met
O=C(NCC(=O)N1CC[C@H](NC2CCC(O)(c3ccc(-c4ncccn4)cn3)CC2)C1)c1cccc(C(F)(F)F)c1 (stereo not given in full)	condition met
CCc1nc(C(N)=O)c(Nc2ccc(N3CCC(N4CCN(C)CC4)CC3)c(OC)c2)nc1NC1CCOCC1	condition not met
CC(C)N(C[C@H]1O[C@@H](n2cnc3c(N)ncnc32)[C@H](O)[C@@H]1O)C1CC(CCc2nc3ccc(C(C)(C)C)cc3[nH]2)C1 (stereo not given in full)	condition not met
CNc1nc(Nc2cnn([C@H]3CCN(C4COC4)C[C@@H]3F)c2Cl)ncc1C(F)(F)F	condition met
Cc1nn(C)c2c1C(c1ccc(C(F)(F)F)cc1)C(C#N)=C(N)O2 (stereo not given)	condition met

Please turn your attention to the following entry.
Incoming: Hello, I'm reviewing records and need to know if Z-AUC of OC[C@H]1O[C@@H](Oc2cc(O)cc(/C=C/c3ccc(O)cc3)c2)[C@H](O)[C@@H](O)[C@@H]1O is below 0.3. Could you check?
Outgoing: condition not met
